B1: TRIM55 (parent)
chain: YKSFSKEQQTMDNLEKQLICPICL

# Variants of: B1
# protocol-details: protein stability index of a GFP-peptide fusion (GPS, HEK-293T) (PSI 1-6); higher = more stable;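 further: lentivirally expressed fusions sorted by FACS into six bins by GFP to DsRed ratio, PSI derived from sequencing read proportions per bin multiplied by bin number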
# protocol-conditions: c terminus: a fixed tail appended
result-type: protein stability index
Give your answer as a number; write no unit.

Record excerpt, results attached:
[
  {
    "alteration": "E7C",
    "protein stability index": 1.98
  },
  {
    "alteration": "Y1A",
    "protein stability index": 2.5
  },
  {
    "alteration": "Q9N",
    "protein stability index": 2.22
  },
  {
    "alteration": "I19D",
    "protein stability index": 2.56
  }
]

For the next question, use this variant.
Record summary for F4C : reported protein stability index = 2.59

Just for reference, the supplement of paper PMC10567573 is where these values come from.
